Documented koff across a set of binders
Target: T1, human latent myostatin (human, UniProt O14793 25-266; O14793 267-375)
T1 construct: non-covalent complex of two propeptides and the mature homodimer; also called human myostatin latent form
T1 sequence 1: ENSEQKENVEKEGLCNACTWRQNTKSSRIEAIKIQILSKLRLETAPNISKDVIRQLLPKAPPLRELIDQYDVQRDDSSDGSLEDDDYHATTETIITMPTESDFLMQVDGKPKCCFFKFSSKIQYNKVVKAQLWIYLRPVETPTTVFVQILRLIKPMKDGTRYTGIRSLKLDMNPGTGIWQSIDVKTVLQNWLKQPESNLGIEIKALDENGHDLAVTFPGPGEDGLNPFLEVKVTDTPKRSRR
T1 sequence 2: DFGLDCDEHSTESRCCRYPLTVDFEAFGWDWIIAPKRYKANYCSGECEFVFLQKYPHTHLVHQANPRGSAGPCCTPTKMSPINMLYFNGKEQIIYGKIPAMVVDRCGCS
Experiment: SPR affinity condition pH7.4 37C

Please review the entries below; each comes with its answer.
• MS_M103205H781-SG1/M103202L813-SK1 (antibody, human IgG1, kappa, V domains shown, also called MS1032LO03-SG1) VH: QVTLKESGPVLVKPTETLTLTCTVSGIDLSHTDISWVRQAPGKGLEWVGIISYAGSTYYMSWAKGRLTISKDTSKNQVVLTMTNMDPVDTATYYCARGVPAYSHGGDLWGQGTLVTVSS VL: DIVMTQSPATLSLSPGERATLSCQTSQSVYHDNWLSWFQQKPGQPPKLLIYWASTLASGVPSRFSGSGSGTDFTLTISSLQPEDAATYYCAGGYGGGRYAFGQGTKVEIKR = 0.00117 s⁻¹
• MS_M103205H714-SG1/M103202L861-SK1 (antibody, human IgG1, kappa, V domains shown, also called MS1032LO01-SG1) VH: QVTLKESGPVLVKPTETLTLTCTVSGIDLSHTDISWVRQAPGKGLEWVGIISYAGSTYYASWAKGRLTISKDTSKNQVVLTMTNMDPVDTATYYCARGVPAYSHGGDLWGQGTLVTVSS VL: DIVMTQSPATLSLSPGERATLSCTSSQSVYHNNWLSWFQQKPGQPPKLLIYWASTLAYGVPSRFSGSGSGTDFTLTISSLQPEDAATYYCAGGYGGGRYAFGQGTKVEIKR = 0.00129 s⁻¹
• MS_M103205H707-SG1/M103202L802-SK1 (antibody, human IgG1, kappa, V domains shown, also called MS1032LO04-SG1) VH: QVTLKESGPVLVKPTETLTLTCTVSGIDLSHYDISWVRQAPGKGLEWVGIISYAGSTYYASWAKGRLTISKDTSKNQVVLTMTNMDPVDTATYYCARGVPAYSHGGDLWGQGTLVTVSS VL: DIVMTQSPATLSLSPGERATLSCTSSQSVYHDNWLSWFQQKPGQPPKLLIYWASTLAYGVPSRFSGSGSGTDFTLTISSLQPEDAATYYCAGGYGGGLYAFGQGTKVEIKR = 0.00125 s⁻¹

query: Give the value of koff reported for the following: MS_M103205H781-SG1/M103202L719-SK1 (antibody, human IgG1, kappa, V domains shown, also called MS1032LO02-SG1) VH: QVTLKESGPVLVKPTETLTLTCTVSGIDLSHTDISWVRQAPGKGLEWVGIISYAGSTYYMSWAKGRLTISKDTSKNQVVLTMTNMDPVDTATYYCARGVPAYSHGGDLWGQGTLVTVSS VL: DIVMTQSPATLSLSPGERATLSCQSSQSVYHNNWLSWFQQKPGQPPKLLIYWASTLAFGVPSRFSGSGSGTDFTLTISSLQPEDAATYYCAGGYGGGLYAFGQGTKVEIKR
result: 0.00179 s⁻¹

Reference source: patent EP4755449A2
